Measured IC50 accompanies every entry in the list below.
Tested on: five CYP450 enzymes (CYP1A2, CYP2C9, CYP2C19, CYP2D6, CYP3A4-M)
ASSAY_INFO: ADME screening: CYP inhibition (five CYP450 enzymes)
TEST_CONDITIONS: human
MEASURE: IC50

INSERT INTO results (compound, measure, value_reported) VALUES
  ('COc1ccc2nc3cc(Cl)ccc3c(Nc3ccc(O)c(CN4CCN(CCN(C)C)CC4)c3)c2c1', 'IC50', '≥ 1000 nM'),
  ('COc1ccc2nc3cc(Cl)ccc3c(Nc3ccc(O)c(CN4CCN(C)CC4)c3)c2c1 [Compound F06, reference compound]', 'IC50', '≥ 1000 nM');

----------
TGT: DNA
ASSAY_INFO: Binding constant to DNA
TEST_CONDITIONS: Table 7
pKd: −log10 of the molar value.
MEASURE: pKd

INSERT INTO measurements (smiles_text, measure, value_reported) VALUES
  ('CN(C)CCN1CCN(Cc2cc(Nc3c4ccc(Cl)cc4nc4ccc(O)cc34)ccc2O)CC1', 'pKd', 5.98);

----------
TGT: ERCC1-XPF (Homo sapiens)
Construct: His6; made in house; host or cells: E. coli BL21 (DE3)
Sequence (Q92889 whole entry): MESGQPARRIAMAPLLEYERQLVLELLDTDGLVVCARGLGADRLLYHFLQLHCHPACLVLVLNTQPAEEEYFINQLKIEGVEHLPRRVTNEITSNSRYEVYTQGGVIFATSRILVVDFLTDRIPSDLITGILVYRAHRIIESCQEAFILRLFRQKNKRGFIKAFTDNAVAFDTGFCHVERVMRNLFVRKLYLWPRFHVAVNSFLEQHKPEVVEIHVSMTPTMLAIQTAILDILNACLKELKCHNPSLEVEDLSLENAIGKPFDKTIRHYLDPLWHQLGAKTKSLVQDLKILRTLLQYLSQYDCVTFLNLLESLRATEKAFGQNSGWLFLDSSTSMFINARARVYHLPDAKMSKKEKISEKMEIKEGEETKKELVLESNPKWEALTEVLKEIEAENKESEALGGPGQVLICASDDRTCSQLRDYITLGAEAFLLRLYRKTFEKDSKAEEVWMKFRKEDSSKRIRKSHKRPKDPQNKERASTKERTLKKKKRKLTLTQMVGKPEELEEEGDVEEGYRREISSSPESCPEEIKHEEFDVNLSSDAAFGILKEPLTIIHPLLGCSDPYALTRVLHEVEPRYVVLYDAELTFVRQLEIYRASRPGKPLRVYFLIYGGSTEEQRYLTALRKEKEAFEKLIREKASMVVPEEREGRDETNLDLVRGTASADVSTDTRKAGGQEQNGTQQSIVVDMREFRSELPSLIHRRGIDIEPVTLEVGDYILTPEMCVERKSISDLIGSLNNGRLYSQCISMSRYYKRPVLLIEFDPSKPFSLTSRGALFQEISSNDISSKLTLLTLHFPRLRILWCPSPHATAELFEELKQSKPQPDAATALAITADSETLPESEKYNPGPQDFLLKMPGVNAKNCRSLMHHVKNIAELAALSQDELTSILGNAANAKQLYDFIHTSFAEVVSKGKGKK
ASSAY_INFO: Microplate fluorescence incision assay of ERCC1-XPF endonuclease activity
Assay type: biochemical
TEST_CONDITIONS: read-out: IC50 of ERCC1-XPF endonuclease activity; full-length ERCC1-XPF; 30 minutes incubation, 5% DMSO
pIC50: −log10 of the molar value.
MEASURE: pIC50

INSERT INTO assay_data (compound, measure, value_reported) VALUES
  ('COc1ccc2nc3cc(Cl)ccc3c(Nc3ccc(O)c(CN4CCN(C)CC4)c3)c2c1 [Compound F06, reference compound]', 'pIC50', 5.73);

----------
TGT: ERCC1-XPF (Homo sapiens)
Construct: His6; made in house; host or cells: E. coli BL21 (DE3)
ASSAY_INFO: Microplate fluorescence incision assay of ERCC1-XPF endonuclease activity
Assay type: biochemical
TEST_CONDITIONS: Table 7; at least three experiments of Vo versus concentration; read-out: IC50
pIC50: −log10 of the molar value.
MEASURE: pIC50

INSERT INTO measurements (compound, value_reported) VALUES
  ('COc1ccc2nc3cc(Cl)ccc3c(Nc3cc(CN4CCCC4)c(O)c(CN4CCCC4)c3)c2n1 [Compound D4, pyronaridine, reference compound]', 6.49);

----------
ASSAY_INFO: ADME screening: solubility
Assay type: physicochemical
TEST_CONDITIONS: Table 8
MEASURE: Solubility (in words)

INSERT INTO results (compound, value_reported) VALUES
  ('COc1ccc2nc3cc(Cl)ccc3c(Nc3ccc(O)c(CN4CCN(CCN(C(C)C)C(C)C)CC4)c3)c2c1 [Gen C-1]', 'Good'),
  ('COc1ccc2nc3cc(Cl)ccc3c(Nc3ccc(O)c(CN4CCN(CCN(C)C)CC4)c3)c2c1 [Compound A4]', 'Poor');

----------
ASSAY_INFO: ADME screening: cell permeability and efflux ratio
TEST_CONDITIONS: Table 8
MEASURE: Cell permeability (Mean recovery %) (in words)

INSERT INTO measurements (compound, value_reported) VALUES
  ('COc1ccc2nc3cc(Cl)ccc3c(Nc3ccc(O)c(CN4CCN(CCN(C(C)C)C(C)C)CC4)c3)c2c1', 'Low'),
  ('COc1ccc2nc3cc(Cl)ccc3c(Nc3ccc(O)c(CN4CCN(CCN(C)C)CC4)c3)c2c1', 'Low'),
  ('CN(C)CCN1CCN(Cc2cc(Nc3c4ccc(Cl)cc4nc4ccc(O)cc34)ccc2O)CC1', 'Low'),
  ('COc1ccc2nc3cc(Cl)ccc3c(Nc3cc(CN4CCCC4)c(O)c(CN4CCCC4)c3)c2n1 [Compound D4, pyronaridine, reference compound]', 'Low (common)'),
  ('COc1ccc2nc3cc(Cl)ccc3c(Nc3ccc(O)c(CN4CCN(C)CC4)c3)c2c1 [Compound F06, reference compound]', 'Low (common)');
